- Test system: Ehrlich
- experiment: Antineoplastic activity against mouse EAC allografted in CF1 mouse assessed as animal survival on day 7 measured at 33 mg/kg
- Assay type: functional, organism-based
- Design: dose 33 mg/kg
Active and inactive are the calls of the source. The rule behind the calls is not given here.
measured.attribute: Activity

Cc1ccc(S(=O)(=O)N[C@@H](Cc2ccc(OS(=O)(=O)c3ccc(C)cc3)cc2)C(=O)OCC#N)cc1	Active
C=COC(=O)CC[C@H](NC(=O)OCc1ccccc1)C(=O)OC=C	Active
N[C@@H](Cc1ccc(N(CCCl)CCCl)cc1)C(=O)O	Active

----------
- experiment: Acute toxicity in CF1 mouse
- Format: organism-based
- test.parameters: in vivo
Mark Met only when LD50 stays strictly below 2000 µmol/kg. Values equal to the cut-off are Not met.

Solved entries (count: 2):
C=COC(=O)CC[C@H](NC(=O)OCc1ccccc1)C(=O)OC=C	Met
O=C(CNC(=O)OCc1ccccc1)OC(Br)CBr (stereo not given)	Met

Input `C=COC(=O)[C@@H]1CCCN1C(=O)OCc1ccccc1` ; condition: LD50 strictly below 2000 µmol/kg. Does it hold?
Met

Cool, now `O=C(O)CC[C@H](NC(=O)OCc1ccccc1)C(=O)O`
Met

Then what about the molecule `C#CCOC(=O)[C@H](CC(C)C)NC(=O)OCc1ccccc1` ?
Met

Okay, and CC(C)C[C@H](NC(=O)OCc1ccccc1)C(=O)OC(Br)CBr (stereo not given in full) ?
Met

Also, `C=COC(=O)CNC(=O)OCc1ccccc1` please.
Not met

Try this molecule next: `Cc1ccc(S(=O)(=O)N[C@@H](Cc2ccc(O)cc2)C(=O)OCC#N)cc1`
Met

Now the same for O=C(OC(Br)CBr)[C@@H]1CCCN1C(=O)OCc1ccccc1 (stereo not given in full)
Met

Another: `C=COC(=O)[C@H](Cc1ccccc1)NC(=O)OCc1ccccc1`
Not met
